For each record, write down the corresponding pKi.
Biological target: ROCK I (AA 6-553) (Homo sapiens, UniProt Q13464)
Sequence (Q13464 6-553, species assumed): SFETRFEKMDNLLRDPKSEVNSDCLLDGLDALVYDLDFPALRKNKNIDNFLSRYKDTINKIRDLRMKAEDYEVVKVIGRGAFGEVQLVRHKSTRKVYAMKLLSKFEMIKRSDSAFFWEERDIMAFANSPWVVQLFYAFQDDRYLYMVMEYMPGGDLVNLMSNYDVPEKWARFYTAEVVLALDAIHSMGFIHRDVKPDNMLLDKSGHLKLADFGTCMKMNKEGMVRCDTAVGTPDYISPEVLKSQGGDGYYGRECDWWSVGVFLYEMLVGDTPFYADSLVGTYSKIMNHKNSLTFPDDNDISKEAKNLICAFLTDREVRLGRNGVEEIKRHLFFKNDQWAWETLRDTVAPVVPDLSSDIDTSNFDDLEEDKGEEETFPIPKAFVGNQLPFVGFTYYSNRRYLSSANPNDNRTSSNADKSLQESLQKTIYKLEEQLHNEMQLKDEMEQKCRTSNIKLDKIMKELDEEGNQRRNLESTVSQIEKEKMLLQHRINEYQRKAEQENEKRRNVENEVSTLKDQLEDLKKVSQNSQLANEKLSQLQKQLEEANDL
pKi: −log10 of the molar value.

# O=C(Cc1ccc(F)cc1)Nc1cc(-c2ccnc(F)c2)cs1 [Compound 67] with ROCK I (AA 6-553) (Homo sapiens, UniProt Q13464): pKi is > 7.00

I looked up Cc1cc(-c2csc(NC(=O)Cc3cccc(OCCN4CCNCC4)c3)c2)ccn1 [Compound 92] and its pKi for ROCK I (AA 6-553) (Homo sapiens, UniProt Q13464) was 6.00 to 7.00

Short answer on ROCK I (AA 6-553) (Homo sapiens, UniProt Q13464) for CN1CCN(CCCOc2cccc(CC(=O)Nc3cc(-c4ccnc(Cl)c4)cs3)c2)CC1 [Compound 103] , pKi: > 7.00

So the reported pKi for CN1CCN(CCCOc2cccc(CC(=O)Nc3nc(-c4ccnc(F)c4)cs3)c2)CC1 [Compound 60] , on ROCK I (AA 6-553) (Homo sapiens, UniProt Q13464), turned out to be > 7.00

Item Cc1cc(-c2csc(NC(=O)Cc3cc4c(cc3Cl)OCO4)n2)ccn1 [Compound 32] ; assay system ROCK I (AA 6-553) (Homo sapiens, UniProt Q13464); pKi reported as > 7.00

Param item: CN1CCN(CCOc2cccc(CC(=O)Nc3cc(-c4ccnc(N)c4)cs3)c2)CC1 [Compound 106] ; param system: ROCK I (AA 6-553) (Homo sapiens, UniProt Q13464); output pKi: > 7.00

Entry Cc1cc(-c2csc(NC(=O)Cc3ccc(NS(C)(=O)=O)cc3)n2)ccn1 [Compound 44] under ROCK I (AA 6-553) (Homo sapiens, UniProt Q13464) had pKi of 6.00 to 7.00

Form field pKi for item Cc1cc(-c2csc(NC(=O)Cc3cccc(OCCN4CCCCC4)c3)c2)ccn1 [Compound 94] on ROCK I (AA 6-553) (Homo sapiens, UniProt Q13464): < 6.00

###

Hi there, I'd appreciate the recorded Ki for every entry that follows.

Observed Ki on CYP2C19 (Homo sapiens, UniProt P33261), entry Nc1cc(-c2csc(NC(=O)Cc3cccc(OCCCC4CCNCC4)c3)c2)ccn1 [Compound 77] , equals 1 to 10 µM

Item Cc1cc(-c2csc(NC(=O)Cc3cccc(OCCN4CCN(C)CC4)c3)c2)ccn1 [Compound 93] ; assay system CYP2C19 (Homo sapiens, UniProt P33261); Ki reported as > 10 µM

Summary: Cc1cc(-c2csc(NC(=O)Cc3cccc(OCCN4CCCCC4)c3)c2)ccn1 [Compound 94] , CYP2C19 (Homo sapiens, UniProt P33261), Ki = > 10 µM

###

PROPERTY NAME: Ki

Result for Cc1cc(-c2csc(NC(=O)Cc3cccc(OCCN4CCNCC4)c3)c2)ccn1 , tested on CYP2C9 (Homo sapiens), Ki: > 10 µM

Observed Ki, CYP2C9 (Homo sapiens), CN1CCN(CCOc2cccc(CC(=O)Nc3cc(-c4ccnc(F)c4)cs3)c2)CC1 : > 10 µM

Let me check: Cc1cc(-c2csc(NC(=O)Cc3cccc(OCCN4CCN(C)CC4)c3)c2)ccn1 , system CYP2C9 (Homo sapiens), measured Ki is > 10 µM

Considering CN1CCN(CCCOc2cccc(CC(=O)Nc3cc(-c4ccnc(F)c4)cs3)c2)CC1 , its Ki with CYP2C9 (Homo sapiens) was recorded as > 10 µM

Form field Ki for item CN1CCN(CCCOc2cccc(CC(=O)Nc3cc(-c4ccnc(Cl)c4)cs3)c2)CC1 on CYP2C9 (Homo sapiens): > 10 µM

Record Cc1cc(-c2csc(NC(=O)Cc3cccc(O)c3)c2)ccn1 / CYP2C9 (Homo sapiens), Ki recorded as > 10 µM

Simply: COc1cccc(CC(=O)Nc2cc(-c3ccnc(N)c3)cs2)c1 , CYP2C9 (Homo sapiens), Ki = 1 to 10 µM

Cc1cc(-c2csc(NC(=O)Cc3cccc(OCCN4CCCCC4)c3)c2)ccn1 tested on CYP2C9 (Homo sapiens) gave Ki: > 10 µM

// compound Cc1cc(-c2csc(NC(=O)Cc3cccc(OCCCN4CCN(C)CC4)c3)c2)ccn1 , assay CYP2C9 (Homo sapiens), Ki value: > 10 µM

The reported Ki value, CYP2C9 (Homo sapiens), for COc1cccc(CC(=O)Nc2cc(-c3ccnc(Cl)c3)cs2)c1 reads 1 to 10 µM

###

I'd appreciate it if you could supply Ki values for the items below.

Per the reported CYP2D6 (Homo sapiens, UniProt P10635) data, Nc1cc(-c2csc(NC(=O)Cc3cccc(OCCCC4CCNCC4)c3)c2)ccn1 [Compound 77] has Ki of < 1 µM

Measured Ki (CYP2D6 (Homo sapiens, UniProt P10635)), entry COc1cccc(CC(=O)Nc2cc(-c3ccnc(C)c3)cs2)c1 [Compound 80] : > 10 µM

Bench note, CYP2D6 (Homo sapiens, UniProt P10635): CN1CCN(CCCOc2cccc(CC(=O)Nc3cc(-c4ccnc(Cl)c4)cs3)c2)CC1 [Compound 103] , Ki reads > 10 µM

Entry COc1cccc(CC(=O)Nc2cc(-c3ccnc(N)c3)cs2)c1 [Compound 64] , tested on CYP2D6 (Homo sapiens, UniProt P10635), has a reported Ki of 1 to 10 µM

Observed Ki on CYP2D6 (Homo sapiens, UniProt P10635), entry CN1CCN(CCCOc2cccc(CC(=O)Nc3cc(-c4ccnc(F)c4)cs3)c2)CC1 [Compound 74] , equals > 10 µM

Noted Ki for O=C(Cc1cccc(OCCCN2CCNCC2)c1)Nc1cc(-c2ccnc(Cl)c2)cs1 [Compound 102] , tested on CYP2D6 (Homo sapiens, UniProt P10635): > 10 µM

###

Molecular target: CYP3A4 (Homo sapiens)
Sequence (P08684 whole entry): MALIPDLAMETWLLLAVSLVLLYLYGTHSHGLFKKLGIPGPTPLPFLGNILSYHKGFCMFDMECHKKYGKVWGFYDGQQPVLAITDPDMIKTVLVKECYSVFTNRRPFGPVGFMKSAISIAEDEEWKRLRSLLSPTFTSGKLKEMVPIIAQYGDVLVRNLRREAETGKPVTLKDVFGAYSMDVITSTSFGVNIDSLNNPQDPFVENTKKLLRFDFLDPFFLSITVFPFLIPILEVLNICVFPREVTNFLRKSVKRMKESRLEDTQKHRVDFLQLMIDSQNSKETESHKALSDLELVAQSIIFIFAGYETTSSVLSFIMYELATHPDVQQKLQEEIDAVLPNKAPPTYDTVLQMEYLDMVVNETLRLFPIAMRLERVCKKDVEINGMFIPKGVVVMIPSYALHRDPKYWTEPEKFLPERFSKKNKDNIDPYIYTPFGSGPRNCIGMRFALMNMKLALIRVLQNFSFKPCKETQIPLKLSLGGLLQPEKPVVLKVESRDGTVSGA
pKi: −log10 of the molar value.
PROPERTY NAME: pKi

Entry CN1CCN(CCCOc2cccc(CC(=O)Nc3cc(-c4ccnc(Cl)c4)cs3)c2)CC1 [Compound 103] : pKi on CYP3A4 (Homo sapiens) = < 5.00

Response field pKi (CYP3A4 (Homo sapiens)) for item Nc1cc(-c2csc(NC(=O)Cc3cccc(OCCCC4CCNCC4)c3)c2)ccn1 [Compound 77] : 5.00 to 6.00

Entry CN1CCN(CCOc2cccc(CC(=O)Nc3cc(-c4ccnc(F)c4)cs3)c2)CC1 [Compound 73] under CYP3A4 (Homo sapiens) had pKi of < 5.00

Kindly note: CYP3A4 (Homo sapiens), O=C(Cc1cccc(OCCCN2CCNCC2)c1)Nc1cc(-c2ccnc(Cl)c2)cs1 [Compound 102] , pKi value reported: 5.00 to 6.00

pKi of O=C(Cc1cccc(O)c1)Nc1cc(-c2ccnc(Cl)c2)cs1 [Compound 101] , assay on CYP3A4 (Homo sapiens), is 5.00 to 6.00

# lookup: Cc1cc(-c2csc(NC(=O)Cc3cccc(OCCCN4CCN(C)CC4)c3)c2)ccn1 [Compound 90] on CYP3A4 (Homo sapiens), pKi = < 5.00

The observed pKi for Cc1cc(-c2csc(NC(=O)Cc3cccc(O)c3)c2)ccn1 [Compound 85] when tested with CYP3A4 (Homo sapiens) stands at < 5.00

Record for Cc1cc(-c2csc(NC(=O)Cc3cccc(OCCN4CCNCC4)c3)c2)ccn1 [Compound 92] under target or system CYP3A4 (Homo sapiens): pKi reported as < 5.00

###

PROPERTY NAME: Ki

Assay ROCK I (AA 6-553) (Homo sapiens, UniProt Q13464), sample Cc1cc(-c2csc(NC(=O)Cc3cccc(OCCCN4CCN(C)CC4)c3)n2)ccn1 , Ki read: 100 to 1000 nM

Form field, Ki with ROCK I (AA 6-553) (Homo sapiens, UniProt Q13464), item CCNc1cc(-c2csc(NC(=O)Cc3ccccc3Cl)n2)ccn1 : 100 to 1000 nM

Reported ROCK I (AA 6-553) (Homo sapiens, UniProt Q13464) Ki for item Cc1cc(-c2csc(NC(=O)Cc3ccc(F)cc3)n2)ccn1 was 100 to 1000 nM

Reported ROCK I (AA 6-553) (Homo sapiens, UniProt Q13464) Ki for item Nc1cc(-c2csc(NC(=O)Cc3cccc(OCCCCl)c3)n2)ccn1 was 100 to 1000 nM

Field Ki (ROCK I (AA 6-553) (Homo sapiens, UniProt Q13464)), entry Cc1cc(-c2csc(NC(=O)Cc3cccc(OCCN4CCN(C)CC4)c3)c2)ccn1 : 100 to 1000 nM

For Nc1cc(-c2csc(NC(=O)Cc3cccc(OCCCC4CCNCC4)c3)c2)ccn1 on ROCK I (AA 6-553) (Homo sapiens, UniProt Q13464), measured Ki was < 100 nM

Value (Ki, ROCK I (AA 6-553) (Homo sapiens, UniProt Q13464)) for record CN(C)c1cc(-c2csc(NC(=O)Cc3ccccc3Cl)n2)ccn1 = > 1000 nM

With ROCK I (AA 6-553) (Homo sapiens, UniProt Q13464) as the test system, CCOc1cc(-c2csc(NC(=O)Cc3cc4c(cc3Cl)OCO4)n2)ccn1 showed Ki of > 1000 nM

Record for Nc1cc(-c2csc(NC(=O)Cc3cc4c(cc3Cl)OCO4)n2)ccn1 under target or system ROCK I (AA 6-553) (Homo sapiens, UniProt Q13464): Ki reported as < 100 nM
